Biological target: T1, human isoleucine zipper-CD40L (IZ-hCD40L) (human, UniProt P29965 113-261)
T1 sequence: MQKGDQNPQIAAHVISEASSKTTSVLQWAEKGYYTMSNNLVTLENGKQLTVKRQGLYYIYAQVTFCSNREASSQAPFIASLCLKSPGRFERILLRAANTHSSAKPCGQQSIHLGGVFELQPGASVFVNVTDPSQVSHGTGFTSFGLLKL
Assay: cell-based or functional assay
measurement_kind: hIZCD40L-driven Human B Cell Proliferation EC50 (µM)
Give bare numbers, in µM.

// for each binder in input: emit hIZCD40L-driven Human B Cell Proliferation EC50
1. BMS2h-494-2 (other) VL: DIQMTQSPSSLSASVGDRVTITCRASQSIEEDLEWYQQKPGKAPRLLIYSSSWLQSGVPSRFSGSGSGTDFTLTISSLQPEDFATYYCQQYFQYPPTFGHGTKVEIKR
2. BMS2h-572-635 (other) VH: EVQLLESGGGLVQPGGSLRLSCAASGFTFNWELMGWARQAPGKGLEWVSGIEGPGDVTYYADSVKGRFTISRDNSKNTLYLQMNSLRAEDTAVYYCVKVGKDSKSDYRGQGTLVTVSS
3. BMS2h-731 (other) VL: DIQMTQSPPSLSASVGDRVTITCRASQLISSHLDWYQQKPGKAPKLLVYDASELQSGVPSRFSGSGSGTDFTLTISSLQPEDFATYYCQQHRSLPFTFGQGTKVEIKR

Result:
1: 4.8; 2: 0.029; 3: 5.8
